In this section, each of the compounds is paired with its reported MIC.
Test system: Peptoniphilus asaccharolyticus
Experiment: In vitro antibacterial activity was tested for Pepto asac PA 3-1
Assay type: functional
Give the number; µg/mL is assumed, so skip it.

INSERT INTO assay_data (compound, reported_value) VALUES
  ('O=C(O)c1cn(C2CC2)c2cc(N3CCNCC3)c(F)cc2c1=O [CIPROFLOXACIN]', 1.6);

QUERY: Give the reported MIC for this compound. COc1c(N2CCC(C)(CN)C2)c(F)cc2c(=O)c(C(=O)O)cn(C3CC3)c12 (centres undefined)
RESULT: 0.8

QUERY: Look up and report measured MIC for this entry: `COc1c(N2CCC(CN)CC2)c(F)cc2c(=O)c(C(=O)O)cn(C3CC3)c12`
RESULT: 0.4

QUERY: Recall and state the measured MIC for CCOc1c(N2CCCC(CN)C2)c(F)cc2c(=O)c(C(=O)O)cn(C3CC3)c12 (centres undefined) .
RESULT: 0.4

QUERY: Tell us which MIC value is on record for NC1CCCN(c2nc3c(cc2F)c(=O)c(C(=O)O)cn3C2CC2)C1 (centres undefined)
RESULT: 6.3

QUERY: Read the entry COc1c(N2CCC(C)(CN)C2)c(F)c(N)c2c(=O)c(C(=O)O)cn(C3CC3)c12 (centres undefined) and write its reported MIC.
RESULT: 0.8

----------
System: Cutibacterium acnes
Assay: In vitro antibacterial activity was tested for Propion acnes PA5-1
Format: functional
So basically, if MIC comes in under 0.8 µg/mL it's T, and if it's 0.8 µg/mL or more it's F.

Past entries and their recorded results:
INSERT INTO measurements (compound, test_target, label) VALUES
  ('COc1c(N2CCC(N)C2)c(F)cc2c(=O)c(C(=O)O)cn(C3CC3)c12 (stereo not given)', 'Cutibacterium acnes', 'T'),
  ('CC1(CN)CCN(c2c(F)c(N)c3c(=O)c(C(=O)O)cn(C4CC4)c3c2F)C1 (stereo not given)', 'Cutibacterium acnes', 'T'),
  ('CCOc1c(N2CCC(C)(CN)C2)c(F)c(N)c2c(=O)c(C(=O)O)cn(C3CC3)c12 (stereo not given)', 'Cutibacterium acnes', 'F'),
  ('COc1c(N2CCC(CN)C2)c(F)cc2c(=O)c(C(=O)O)cn(C3CC3)c12 (stereo not given)', 'Cutibacterium acnes', 'T'),
  ('COc1c(N2CCC(C)(CN)C2)c(F)cc2c(=O)c(C(=O)O)cn(C3CC3)c12 (stereo not given)', 'Cutibacterium acnes', 'T'),
  ('CCOc1c(N2CCCC(N)C2)c(F)c(N)c2c(=O)c(C(=O)O)cn(C3CC3)c12 (stereo not given)', 'Cutibacterium acnes', 'F');

QUERY: Does the reported MIC of CC1(CN)CCN(c2c(F)cc3c(=O)c(C(=O)O)cn(C4CC4)c3c2Cl)C1 (stereo not given) stay below 0.8 µg/mL?
RESULT: T

QUERY: Answer whether the compound CCOc1c(N2CCCC(CN)C2)c(F)cc2c(=O)c(C(=O)O)cn(C3CC3)c12 (stereo not given) has MIC strictly less than 0.8 µg/mL
RESULT: F

QUERY: Is it true that MIC reported for COc1c(N2CCCC(CN)C2)c(F)c(N)c2c(=O)c(C(=O)O)cn(C3CC3)c12 (stereo not given) is less than 0.8 µg/mL?
RESULT: F

QUERY: Field: below-cutoff. Rule: recorded MIC strictly less than 0.8 µg/mL. Subject: CCNCC1CCCN(c2c(F)cc3c(=O)c(C(=O)O)cn(C4CC4)c3c2OCC)C1 (stereo not given)
RESULT: F

QUERY: API: query returns whether the compound falls strictly under 0.8 µg/mL in MIC. Query: `C[C@@H]1CN(c2c(F)c(N)c3c(=O)c(C(=O)O)cn(C4CC4)c3c2F)C[C@H](C)N1`
RESULT: T

QUERY: Hello, I'm reviewing records and need to know if MIC of NC1CCN(c2cc3c(cc2F)c(=O)c(C(=O)O)cn3C2CC2)C1 (stereo not given) is below 0.8 µg/mL. Could you check?
RESULT: F

QUERY: Please let me know if NC1CCCN(c2c(F)cc3c(=O)c(C(=O)O)cn(C4CC4)c3c2Cl)C1 (stereo not given) shows MIC below 0.8 µg/mL.
RESULT: T

----------
Tested on: Escherichia coli
Assay: In vitro antibacterial activity was tested for Escherichia coli Vogel
Format: functional
# MIC listing for each entry below
The answer is to be given in µg/mL; state only the numeric part.

Some solved entries appear below for comparison.
INSERT INTO assay_data (compound, unit_of_measure, reported_value) VALUES
  ('NCC1CCCN(c2c(F)c(N)c3c(=O)c(C(=O)O)cn(C4CC4)c3c2F)C1 (stereo not given)', 'µg/mL', 0.05),
  ('NCC1CCCN(c2c(F)cc3c(=O)c(C(=O)O)cn(C4CC4)c3c2Cl)C1 (stereo not given)', 'µg/mL', 0.1),
  ('COc1c(N2CCCC(CN)C2)c(F)c(N)c2c(=O)c(C(=O)O)cn(C3CC3)c12 (stereo not given)', 'µg/mL', 0.1),
  ('COc1c(N2CCC(CN)C2)c(F)cc2c(=O)c(C(=O)O)cn(C3CC3)c12 (stereo not given)', 'µg/mL', 0.05);

Could you now look at the following compound, please?
QUERY: Look up MIC of COc1c(N2CC(C)NC(C)C2)c(F)c(N)c2c(=O)c(C(=O)O)cn(C3CC3)c12 (stereo not given) and report it.
RESULT: 0.2

----------
Tested on: Cutibacterium acnes
Assay: In vitro antibacterial activity was tested for Propion acnes PA5-1
Format: functional
value.type: log10 of MIC (log10 of the value in µg/mL)
// stored as log10 of MIC expressed in µg/mL

Worked examples, 5 compounds total:
INSERT INTO assay_data (compound, test_target, reported_value) VALUES
  ('NC1CCN(c2nc3c(cc2F)c(=O)c(C(=O)O)cn3C2CC2)C1 (stereo not given)', 'Cutibacterium acnes', -0.70),
  ('COc1c(N2CCC(CN)CC2)c(F)cc2c(=O)c(C(=O)O)cn(C3CC3)c12', 'Cutibacterium acnes', -0.40),
  ('COc1c(N2CCNC(C)C2)c(F)cc2c(=O)c(C(=O)O)cn(C3CC3)c12 (stereo not given)', 'Cutibacterium acnes', -0.40),
  ('NC1CCCN(c2nc3c(cc2F)c(=O)c(C(=O)O)cn3C2CC2)C1 (stereo not given)', 'Cutibacterium acnes', 0.80),
  ('CCNCC1CCN(c2c(F)cc3c(=O)c(C(=O)O)cn(C4CC4)c3c2OC)C1 (stereo not given)', 'Cutibacterium acnes', -0.40);

QUERY: Given `COc1c(N2CC[C@@H](N)C2)c(F)cc2c(=O)c(C(=O)O)cn(C3CC3)c12` , respond with its log10 of MIC.
RESULT: -0.70

QUERY: Using the record for COc1c(N2CCC(C)(CN)C2)c(F)c(N)c2c(=O)c(C(=O)O)cn(C3CC3)c12 (stereo not given) , state its measured log10 of MIC.
RESULT: 0.20

QUERY: Using known records, supply log10 of MIC for CCOc1c(N2CCNC(C)C2)c(F)cc2c(=O)c(C(=O)O)cn(C3CC3)c12 (stereo not given)
RESULT: 0.49

QUERY: // fetch log10 of MIC given entry COc1c(N2CCCC(N)C2)c(F)c(N)c2c(=O)c(C(=O)O)cn(C3CC3)c12 (stereo not given)
RESULT: -0.40

QUERY: Give recorded log10 of MIC. `C[C@@H]1CN(c2cc3c(cc2F)c(=O)c(C(=O)O)cn3C2CC2)C[C@H](C)N1`
RESULT: -0.10

QUERY: Give me measured log10 of MIC, please, for this compound: NC1CCN(c2c(F)cc3c(=O)c(C(=O)O)cn(C4CC4)c3c2F)C1 (stereo not given)
RESULT: -0.70

QUERY: Give reported log10 of MIC value for COc1c(N2CC(C)NC(C)C2)c(F)c(N)c2c(=O)c(C(=O)O)cn(C3CC3)c12 (stereo not given)
RESULT: 0.20

----------
Test system: Streptococcus pyogenes
Test: In vitro antibacterial activity was tested for Streptococcus pyogenes C203
Assay type: functional
value.type: MIC (µg/mL)
API: value field is a number in µg/mL; no unit string.

Consider the following illustrative entries.
INSERT INTO assay_data (compound, value_type, reported_value) VALUES
  ('Nc1c(F)c(N2CCC(N)C2)c(F)c2c1c(=O)c(C(=O)O)cn2C1CC1 (centres undefined)', 'MIC', 0.025),
  ('NC1CCN(c2c(F)cc3c(=O)c(C(=O)O)cn(C4CC4)c3c2F)C1 (centres undefined)', 'MIC', 0.05),
  ('COc1c(N2CCC(CN)C2)c(F)cc2c(=O)c(C(=O)O)cn(C3CC3)c12 (centres undefined)', 'MIC', 0.003);

QUERY: Read off the recorded MIC for COc1c(N2CCC(C)(CN)C2)c(F)c(N)c2c(=O)c(C(=O)O)cn(C3CC3)c12 (centres undefined)
RESULT: 0.025
